Value source: paper PMC3401608

# key: entry, value: pKi
# subject of test: human cloned 5-HT6 receptors (Homo sapiens, UniProt P50406)
# Sequence (P50406 whole entry): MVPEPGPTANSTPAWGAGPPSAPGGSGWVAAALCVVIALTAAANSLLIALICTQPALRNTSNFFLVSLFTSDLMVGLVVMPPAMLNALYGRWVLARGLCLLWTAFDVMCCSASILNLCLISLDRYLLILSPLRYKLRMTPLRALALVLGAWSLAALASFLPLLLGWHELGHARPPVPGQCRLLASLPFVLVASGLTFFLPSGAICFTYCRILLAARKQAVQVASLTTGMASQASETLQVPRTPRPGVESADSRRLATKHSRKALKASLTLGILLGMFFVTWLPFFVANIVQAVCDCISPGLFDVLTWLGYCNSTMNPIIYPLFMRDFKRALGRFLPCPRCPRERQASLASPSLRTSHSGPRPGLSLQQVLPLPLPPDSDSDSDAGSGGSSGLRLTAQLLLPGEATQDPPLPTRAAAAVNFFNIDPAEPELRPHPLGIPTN
# test protocol: 5-HT6R radioligand competition binding assays
# measurement setup: 5-HT6R, Table 6, unit inferred
pKi: −log10 of the molar value.

| molecule | pKi |
| --- | --- |
| O=c1cc(N2CCOCC2)oc2c(-c3ccccc3)cccc12 [Compound 7] | < 5.00 |
| CC(NCCC(c1ccccc1)c1ccccc1)c1ccccc1 (stereo not drawn) [Compound 5] | < 5.00 |
| COc1ccccc1N1CCN(CCCCNC(=O)c2ccc3ccccc3c2)CC1 [Compound 9] | < 5.00 |

====

# key: entry, value: pKi
# subject of test: human cloned 5-HT6 receptors (Homo sapiens, UniProt P50406)
# test protocol: 5-HT6R radioligand competition binding assays
pKi: −log10 of the molar value.

| molecule | pKi |
| --- | --- |
| CC(NCCC(c1ccccc1)c1ccccc1)c1ccccc1 (centres unmarked) [Compound 5] | < 5.00 |
| COc1ccccc1N1CCN(CCCCNC(=O)c2ccc3ccccc3c2)CC1 [Compound 9] | < 5.00 |
